Cited source for all entries: the supplement of paper PMC12076712

biological target: UniProt Q15303; assay: pIC50, kinobeads binding competition; details: cell material: Lysate mix
Sequence (Q15303 whole entry): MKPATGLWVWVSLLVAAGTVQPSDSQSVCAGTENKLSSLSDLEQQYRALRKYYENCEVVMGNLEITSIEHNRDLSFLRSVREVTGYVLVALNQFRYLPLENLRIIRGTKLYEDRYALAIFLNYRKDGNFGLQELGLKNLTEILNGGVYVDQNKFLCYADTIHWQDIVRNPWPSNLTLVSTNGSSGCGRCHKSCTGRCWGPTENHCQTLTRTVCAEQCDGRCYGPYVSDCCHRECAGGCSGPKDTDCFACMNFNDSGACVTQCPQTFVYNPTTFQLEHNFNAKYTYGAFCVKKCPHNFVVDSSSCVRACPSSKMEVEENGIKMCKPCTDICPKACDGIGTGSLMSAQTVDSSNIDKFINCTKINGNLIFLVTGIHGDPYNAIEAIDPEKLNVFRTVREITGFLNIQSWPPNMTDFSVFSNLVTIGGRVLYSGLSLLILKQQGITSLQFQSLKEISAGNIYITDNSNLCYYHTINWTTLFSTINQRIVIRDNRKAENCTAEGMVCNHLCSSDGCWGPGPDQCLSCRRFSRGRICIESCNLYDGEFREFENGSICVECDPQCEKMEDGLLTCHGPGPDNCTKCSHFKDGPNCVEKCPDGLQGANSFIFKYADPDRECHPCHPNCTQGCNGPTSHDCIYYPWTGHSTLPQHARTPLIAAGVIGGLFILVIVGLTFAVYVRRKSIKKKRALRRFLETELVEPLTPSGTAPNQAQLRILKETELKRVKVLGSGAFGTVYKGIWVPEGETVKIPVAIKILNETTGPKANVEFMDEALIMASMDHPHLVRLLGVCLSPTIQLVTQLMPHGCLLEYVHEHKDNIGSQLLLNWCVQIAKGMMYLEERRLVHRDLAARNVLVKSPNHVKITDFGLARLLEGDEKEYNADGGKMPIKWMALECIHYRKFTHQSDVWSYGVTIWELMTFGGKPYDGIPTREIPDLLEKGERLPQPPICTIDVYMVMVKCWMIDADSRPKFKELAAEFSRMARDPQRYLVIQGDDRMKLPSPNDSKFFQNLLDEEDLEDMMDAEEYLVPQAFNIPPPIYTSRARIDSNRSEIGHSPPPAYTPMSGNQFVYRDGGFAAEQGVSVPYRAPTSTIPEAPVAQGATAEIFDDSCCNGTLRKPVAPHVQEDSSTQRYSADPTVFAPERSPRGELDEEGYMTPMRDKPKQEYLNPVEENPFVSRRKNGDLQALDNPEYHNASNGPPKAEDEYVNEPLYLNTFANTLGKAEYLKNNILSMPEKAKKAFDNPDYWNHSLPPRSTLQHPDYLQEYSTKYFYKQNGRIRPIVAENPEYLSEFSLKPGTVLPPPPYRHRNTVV
readout kind: pIC50

- CCNC(=O)c1cc(Nc2cc(C)[nH]n2)nc(N2CCN(Cc3ccc(S(=O)(=O)F)cc3)CC2)n1: 5.04
- C#CCNC(=O)c1cc(Nc2cc(C)[nH]n2)nc(N2CCN(Cc3ccc(S(=O)(=O)F)cc3)CC2)n1: 4.99
- CCNC(=O)c1cc(Nc2cc(C3CC3)[nH]n2)nc(N2CCN(Cc3ccc(S(=O)(=O)F)cc3)CC2)n1: 4.96

----------
target: UniProt Q00535; experiment: pIC50, kinobeads binding competition; conditions: cell material: Lysate mix
Sequence (Q00535 whole entry, looked up): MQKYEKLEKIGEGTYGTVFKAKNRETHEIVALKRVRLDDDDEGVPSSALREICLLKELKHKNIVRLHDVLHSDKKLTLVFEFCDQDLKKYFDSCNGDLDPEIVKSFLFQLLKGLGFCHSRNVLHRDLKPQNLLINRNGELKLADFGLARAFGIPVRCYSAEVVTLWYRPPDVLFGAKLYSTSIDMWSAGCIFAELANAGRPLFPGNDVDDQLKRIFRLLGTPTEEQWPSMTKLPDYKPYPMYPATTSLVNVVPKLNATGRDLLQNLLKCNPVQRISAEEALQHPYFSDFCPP
readout kind: pIC50

• Cc1cc(Nc2cc(C(=O)NCCNC(=O)OC3CC/C=C/CCC3)nc(N3CCN(Cc4ccc(S(=O)(=O)F)cc4)CC3)n2)n[nH]1 (stereo unspecified) = 4.92
• C#CCNC(=O)c1cc(Nc2cc(C3CC3)[nH]n2)nc(N2CCN(Cc3ccc(S(=O)(=O)F)cc3)CC2)n1 = 6.48
• CCNC(=O)c1cc(Nc2cc(C)[nH]n2)nc(N2CCN(Cc3ccc(S(=O)(=O)F)cc3)CC2)n1 = 5.93
• O=C(NCCNC(=O)c1cc(Nc2cc(C3CC3)[nH]n2)nc(N2CCN(Cc3ccc(S(=O)(=O)F)cc3)CC2)n1)OC1CC/C=C/CCC1 (stereo unspecified) = 5.12
• C#CCNC(=O)c1cc(Nc2cc(C)[nH]n2)nc(N2CCN(Cc3ccc(S(=O)(=O)F)cc3)CC2)n1 = 6.02
• CCNC(=O)c1cc(Nc2cc(C3CC3)[nH]n2)nc(N2CCN(Cc3ccc(S(=O)(=O)F)cc3)CC2)n1 = 6.06
